measuredOn: CSTF1 (UniProt Q05048)
Sequence: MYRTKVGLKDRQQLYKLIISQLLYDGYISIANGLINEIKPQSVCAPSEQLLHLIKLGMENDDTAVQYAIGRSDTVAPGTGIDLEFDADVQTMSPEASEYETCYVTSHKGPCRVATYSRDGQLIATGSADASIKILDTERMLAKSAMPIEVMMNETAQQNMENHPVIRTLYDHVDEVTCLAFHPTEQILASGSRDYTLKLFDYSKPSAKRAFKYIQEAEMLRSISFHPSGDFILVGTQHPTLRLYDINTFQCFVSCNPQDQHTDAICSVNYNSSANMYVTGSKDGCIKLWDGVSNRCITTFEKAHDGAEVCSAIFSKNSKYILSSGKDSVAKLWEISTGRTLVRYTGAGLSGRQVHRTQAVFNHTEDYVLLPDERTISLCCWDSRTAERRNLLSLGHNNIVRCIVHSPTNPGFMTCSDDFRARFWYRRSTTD
assay: Kd (EC50 corrected by depletion factor)
observedProperty: Kd (nM)
Entry rule: numbers only, all in nM.

Prompt: // lookup Kd for `UAUUUAU`
Response: 322

###

measuredOn: HNRNPF (UniProt P52597)
Sequence: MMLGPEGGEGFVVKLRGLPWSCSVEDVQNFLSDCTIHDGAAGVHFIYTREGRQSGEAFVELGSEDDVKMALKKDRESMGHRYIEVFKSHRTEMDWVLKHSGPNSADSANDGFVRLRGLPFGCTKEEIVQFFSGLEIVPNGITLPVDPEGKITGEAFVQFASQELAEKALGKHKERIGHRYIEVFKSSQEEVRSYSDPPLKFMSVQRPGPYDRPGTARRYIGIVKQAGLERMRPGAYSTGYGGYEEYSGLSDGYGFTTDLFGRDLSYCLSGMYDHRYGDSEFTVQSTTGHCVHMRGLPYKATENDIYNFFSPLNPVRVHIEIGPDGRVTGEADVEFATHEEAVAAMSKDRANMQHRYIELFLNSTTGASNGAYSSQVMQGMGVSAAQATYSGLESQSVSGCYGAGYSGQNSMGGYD
assay: EC50 of free RNA motif oligo competing protein binding to immobilised probe
observedProperty: pEC50
Interpret pEC50 as the negative base-10 log of the concentration measured in mol/L.

Prompt: // lookup pEC50 for `AAUAAA`
Response: 5.21

###

measuredOn: CPSF1 (UniProt Q10570)
Sequence: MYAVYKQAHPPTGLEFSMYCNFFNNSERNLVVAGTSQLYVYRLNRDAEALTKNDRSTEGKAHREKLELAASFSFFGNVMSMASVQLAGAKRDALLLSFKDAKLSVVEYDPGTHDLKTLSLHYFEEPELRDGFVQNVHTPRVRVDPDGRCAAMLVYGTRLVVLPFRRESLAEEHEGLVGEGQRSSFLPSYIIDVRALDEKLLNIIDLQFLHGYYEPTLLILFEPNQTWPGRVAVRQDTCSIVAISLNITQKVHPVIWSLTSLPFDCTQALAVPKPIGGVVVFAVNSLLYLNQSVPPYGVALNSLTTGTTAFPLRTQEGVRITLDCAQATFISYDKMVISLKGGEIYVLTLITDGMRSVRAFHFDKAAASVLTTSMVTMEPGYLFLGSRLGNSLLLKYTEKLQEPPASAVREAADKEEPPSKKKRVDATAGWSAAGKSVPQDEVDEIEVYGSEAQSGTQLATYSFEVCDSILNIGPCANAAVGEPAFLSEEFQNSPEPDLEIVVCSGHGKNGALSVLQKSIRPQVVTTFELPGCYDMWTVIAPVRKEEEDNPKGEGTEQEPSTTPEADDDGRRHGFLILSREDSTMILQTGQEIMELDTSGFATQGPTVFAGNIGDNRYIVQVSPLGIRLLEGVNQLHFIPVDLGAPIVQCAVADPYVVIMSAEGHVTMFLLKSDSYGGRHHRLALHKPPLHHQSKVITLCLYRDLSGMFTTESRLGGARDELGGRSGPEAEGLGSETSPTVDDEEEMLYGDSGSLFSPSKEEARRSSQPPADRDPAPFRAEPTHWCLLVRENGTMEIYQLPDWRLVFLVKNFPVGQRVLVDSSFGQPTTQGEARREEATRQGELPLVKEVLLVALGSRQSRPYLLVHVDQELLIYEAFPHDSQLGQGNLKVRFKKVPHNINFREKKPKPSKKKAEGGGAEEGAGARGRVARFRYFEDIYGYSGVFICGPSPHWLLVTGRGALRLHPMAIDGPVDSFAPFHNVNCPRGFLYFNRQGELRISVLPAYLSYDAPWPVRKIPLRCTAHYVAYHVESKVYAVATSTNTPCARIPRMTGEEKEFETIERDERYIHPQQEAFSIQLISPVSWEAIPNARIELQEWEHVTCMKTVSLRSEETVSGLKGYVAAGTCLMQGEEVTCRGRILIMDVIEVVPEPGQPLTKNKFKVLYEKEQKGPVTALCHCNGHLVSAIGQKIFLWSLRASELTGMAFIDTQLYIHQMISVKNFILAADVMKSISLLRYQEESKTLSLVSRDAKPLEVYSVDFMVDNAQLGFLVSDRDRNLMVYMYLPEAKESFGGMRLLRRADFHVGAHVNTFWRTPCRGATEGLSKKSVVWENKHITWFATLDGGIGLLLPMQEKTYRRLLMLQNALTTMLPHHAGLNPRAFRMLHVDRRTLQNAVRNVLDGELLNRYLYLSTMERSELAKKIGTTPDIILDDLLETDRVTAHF
assay: Kd (EC50 corrected by depletion factor)
Collected Kd values appear next to each entry.
Entry rule: numbers only, all in nM.

>>> print(df.to_string())
       seq              measuredon  val
0  UAUUUAU  CPSF1 (UniProt Q10570)  340

Prompt: // lookup Kd for `AAUAAA`
Response: 6.97
